test system: Mycobacterium tuberculosis H37Rv; test: Antitubercular activity, growth inhibition by Alamar-Blue / resazurin microtiter assay; format: cell-based; conditions: H37RV
Provide the reported MIC of each item.
Give the number; µg/mL is assumed, so skip it.

query: Item under review: COc1ccc(-c2c(CN3CC[Si](C)(C)CC3)cc(C)n2-c2ccc(F)cc2)cc1 . Reported MIC?
result: 3.12

query: Item under review: CCc1ccc(-n2c(-c3ccc(Cl)cc3)cc(CN3CC[Si](C)(C)CC3)c2C)cc1 . Reported MIC?
result: 0.08

query: Item under review: CSc1ccc(-c2c(CN3CC[Si](C)(C)CC3)cc(C)n2-c2ccc(C(C)C)cc2)cc1 [Compound 12b] . Reported MIC?
result: 1.25

query: Item under review: Cc1c(CN2CC[Si](C)(C)CC2)cc(-c2ccc(Cl)cc2)n1-c1ccc(C(C)C)cc1 . Reported MIC?
result: 0.04

query: Item under review: Cc1c(CN2CC[Si](C)(C)CC2)cc(-c2ccc(Cl)cc2)n1-c1ccc(Cl)cc1 . Reported MIC?
result: 0.04

The measured values listed here are drawn from patent US9657037B2.
